- System: Trichomonas vaginalis G3 trophozoites
- CONDITION_CONTEXT: HTS replicate 1; parasite screen 1 µg/mL
METRIC: T.vaginalis_%inb_Rep1 (%)

[[record]]
compound = "C[C@@]12CCC[C@@]34CCC[C@@H](C=C[C@H]1CC3)N42"
metric = "T.vaginalis_%inb_Rep1"
readout_units = "%"
test_value = 9.49

[[record]]
compound = "CC[C@H]1/C=C/C=C/C[C@@H](C)[C@H](O)[C@@](C)(O)C(=O)[C@@H](C)[C@H](O)[C@@H](C)C(=O)[C@@H](C)[C@H](O)[C@@H](C)/C=C/C(=O)O[C@H]2C[C@@]3(CC[C@H](C)[C@H](C[C@@H](C)O)O3)O[C@@H](CC1)[C@H]2C"
metric = "T.vaginalis_%inb_Rep1"
readout_units = "%"
test_value = 14.35

[[record]]
compound = "COCC(=O)N[C@@H](C(=O)N1NCCC[C@H]1C(=O)N[C@@H](Cc1ccccc1)[C@@H](O)[C@H](C)C(=O)N[C@H]1CCN(C(N)=O)C1=O)[C@H](O)C(C)C [Padanamide A]"
metric = "T.vaginalis_%inb_Rep1"
readout_units = "%"
test_value = 15.72

[[record]]
compound = "CC(=O)OC[C@@]1(C)[C@@H]2C[C@H](OC(C)=O)[C@@]3(C)Oc4cc(-c5ccccc5)oc(=O)c4[C@H](O)[C@@H]3[C@@]2(C)CC[C@@H]1OC(C)=O"
metric = "T.vaginalis_%inb_Rep1"
readout_units = "%"
test_value = 13.03


----------
- System: Trichomonas vaginalis G3 trophozoites
- CONDITION_CONTEXT: HTS, parasite screen at 1 µg/mL, replicate 2
Starred links: 1 amine or outer side, 2 acyl side, 3 side chain; linkers in the order of their positions; H or OH if unused. Positions of bridges follow the written chain, without caps; N, C: chain ends. Non-standard residues stand in square brackets, D forms with d. Residues, ends and D or L forms follow the SMILES beside them. *: point of attachment. hTyr(3S-OH,4S-OH,3'-OSO3H) = N[C@H](C(=O)O)[C@H](O)[C@@H](O)c1ccc(O)c(OS(=O)(=O)O)c1; Orn(4R-OH,5R-OH) = O=C([C@H](C[C@@H](O)[C@@H](O)N[*:3])N[*:1])[*:2]; Pro(3S-OH,4S-Me) = C[C@H]1CN[C@H](C(=O)O)[C@H]1O; Gln(3R-OH) = NC(=O)C[C@@H](O)[C@H](N)C(=O)O; Palmitoyl = CCCCCCCCCCCCCCCC(=O)*; Hyp = O=C(O)[C@@H]1C[C@@H](O)CN1
Listed next: entries and their corresponding T.vaginalis_%inb_Rep2.
METRIC: T.vaginalis_%inb_Rep2 (%)

[[record]]
molecule = "CC[C@H]1OC(=O)[C@H](C)[C@@H](O[C@H]2C[C@@](C)(OC)[C@@H](O)[C@H](C)O2)[C@H](C)[C@@H](O[C@@H]2O[C@H](C)C[C@H](N(C)C)[C@H]2O)[C@](C)(O)C[C@@H](C)C(=NO)[C@H](C)[C@@H](O)[C@]1(C)O"
metric = "T.vaginalis_%inb_Rep2"
test_value = 4.19

[[record]]
molecule = "CCC(=O)[C@@H](C)[C@@H](O)[C@H](C)C[C@@H](C)[C@H]1OC(=O)C[C@@]2(O)CC=C(C)[C@H](O2)/C(C)=C/CCC[C@@H](O[C@H]2C[C@@H](OC(N)=O)[C@H](O)[C@@H](C)O2)/C=C/[C@H](C)C[C@H]1C"
metric = "T.vaginalis_%inb_Rep2"
test_value = 12.92

[[record]]
molecule = "COC1=C(OC)C(=O)C(C)C(C)C1=O (centres unmarked)"
metric = "T.vaginalis_%inb_Rep2"
test_value = 15.33

[[record]]
molecule = "CCC(=O)[C@@H](C)[C@@H](O)[C@H](C)C[C@@H](C)[C@H]1OC(=O)C[C@@]2(O)CC=C(C)[C@H](O2)/C(C)=C/CCC[C@@H](O[C@H]2C[C@@H](O)[C@H](O)[C@@H](C)O2)/C=C/[C@H](C)C[C@H]1C"
metric = "T.vaginalis_%inb_Rep2"
test_value = 16.33

[[record]]
molecule = "COc1cc(O)c2c(=O)oc3c(O)c(OC)cc(C)c3c2c1"
metric = "T.vaginalis_%inb_Rep2"
test_value = 16.48

[[record]]
molecule = "COc1c(Cl)c(O)c(Cl)c(C)c1C(=O)O[C@H]1[C@H](O)C[C@H](O[C@H]2[C@@H](O)CC(=O)O[C@@H]2C)O[C@@H]1C"
metric = "T.vaginalis_%inb_Rep2"
test_value = 13.52

[[record]]
molecule = "CC1=C[C@H](O/C=C2/C(=O)O[C@@H]3c4ccccc4C[C@H]23)OC1=O"
metric = "T.vaginalis_%inb_Rep2"
test_value = 4.49

[[record]]
molecule = "CCCCCC(=O)C(CCCC)c1oc(=O)c(CCCC)c(O)c1CCCC (centres unmarked)"
metric = "T.vaginalis_%inb_Rep2"
test_value = 11.14

[[record]]
molecule = "COc1c(O)c2c(=O)cc3c4c5c(cc(=O)c6c(O)c(OC)c(C[C@H](C)OC(C)=O)c(c(c1C[C@H](C)OC(C)=O)c24)c65)OCO3"
metric = "T.vaginalis_%inb_Rep2"
test_value = 14.53

[[record]]
molecule = "CO[C@H]1C[C@H](O[C@H]2[C@H](C)O[C@@H](O[C@@H]3/C(C)=C/C[C@@H]4C[C@@H](C[C@]5(C=C[C@H](C)[C@@H](C6CCCCC6)O5)O4)OC(=O)[C@H]4C=C(C)[C@@H](O)[C@H]5OC/C(=C\\C=C\\[C@@H]3C)[C@@]45O)C[C@@H]2OC)O[C@@H](C)[C@@H]1O [Doramectin, epi-]"
metric = "T.vaginalis_%inb_Rep2"
test_value = 15.52

[[record]]
molecule = "C[C@@H](O)[C@@H]1NC(=O)[C@@H](N)C[C@@H](O)[C@@H](O)NC(=O)[C@@H]2[C@@H](O)[C@@H](C)CN2C(=O)[C@H]([C@H](O)CC(N)=O)NC(=O)[C@H]([C@H](O)[C@@H](O)c2ccc(O)c(OS(=O)(=O)O)c2)NC(=O)[C@@H]2C[C@@H](O)CN2C1=O [FR 179642] (H-[Orn(4R-OH,5R-OH)]T[Hyp][hTyr(3S-OH,4S-OH,3'-OSO3H)][Gln(3R-OH)][Pro(3S-OH,4S-Me)]; lactam 1-C)"
metric = "T.vaginalis_%inb_Rep2"
test_value = 14.17

[[record]]
molecule = "CCOCCO[C@@H]1CC[C@@H](C[C@@H](C)[C@@H]2CC(=O)[C@H](C)/C=C(\\C)[C@@H](O)[C@@H](OC)C(=O)[C@H](C)C[C@H](C)/C=C/C=C/C=C(\\C)[C@@H](OC)C[C@@H]3CC[C@@H](C)[C@@](O)(O3)C(=O)C(=O)N3CCCC[C@H]3C(=O)O2)C[C@H]1OC"
metric = "T.vaginalis_%inb_Rep2"
test_value = 13.47

[[record]]
molecule = "CC(C)CCC[C@@H](C)[C@@H]1CC[C@]2(C)C3=C(CC[C@@]12C)[C@@]1(C)CC[C@H](O)C(C)(C)[C@@H]1CC3 [Dihydroeuphol]"
metric = "T.vaginalis_%inb_Rep2"
test_value = 10.05

[[record]]
molecule = "CCCN1C[C@H](C)[C@@H](O)[C@](C)(O)[C@@H](CC)OC(=O)[C@H](C)[C@@H](O[C@H]2C[C@@](C)(OC)[C@@H](O)[C@H](C)O2)[C@H](C)[C@@H](O[C@@H]2O[C@H](C)C[C@H](N(C)C)[C@H]2O)[C@](C)(O)C[C@H]1C"
metric = "T.vaginalis_%inb_Rep2"
test_value = 7.95

[[record]]
molecule = "COc1ccc2c3c([nH]c2c1)[C@H](C=C(C)C)N1C(=O)[C@@H]2CCCN2C(=O)[C@@H]1C3"
metric = "T.vaginalis_%inb_Rep2"
test_value = 4.11

[[record]]
molecule = "C[C@@H]1CCC[C@H](O)CCC/C=C/c2cc(O)cc(O)c2C(=O)O1"
metric = "T.vaginalis_%inb_Rep2"
test_value = 15.05

[[record]]
molecule = "CCCCCCCCCCCCCCCC(=O)N[C@H]1C[C@@H](O)[C@@H](O)NC(=O)[C@@H]2[C@@H](O)[C@@H](C)CN2C(=O)[C@H]([C@H](O)CC(N)=O)NC(=O)[C@H]([C@H](O)[C@@H](O)c2ccc(O)c(OS(=O)(=O)O)c2)NC(=O)[C@@H]2C[C@@H](O)CN2C(=O)[C@H]([C@@H](C)O)NC1=O [FR 901379] (Palmitoyl-[Orn(4R-OH,5R-OH)]T[Hyp][hTyr(3S-OH,4S-OH,3'-OSO3H)][Gln(3R-OH)][Pro(3S-OH,4S-Me)]; lactam 1-C)"
metric = "T.vaginalis_%inb_Rep2"
test_value = 13.45

[[record]]
molecule = "COc1cc(/C=C/C(=O)O)ccc1O"
metric = "T.vaginalis_%inb_Rep2"
test_value = 12.64

[[record]]
molecule = "C[C@@H]1C=C2C(=O)O[C@@H]3CC[C@H](C1)[C@]23O"
metric = "T.vaginalis_%inb_Rep2"
test_value = 5.71

[[record]]
molecule = "CN[C@@H]1C[C@H]2O[C@@](C)([C@@H]1OC)n1c3ccccc3c3c4c(c5c6ccccc6n2c5c31)C(=O)N[C@H]4O [UCN-02]"
metric = "T.vaginalis_%inb_Rep2"
test_value = 20.96

